Reference source: PubChem BioAssay (NCI)

- Test system: HS 578T breast
- methodSummary: NCI-60 one-dose screen, 48 h
- testContext: 10 µM unless noted
This is part of a sample that, as a whole, favours compounds with a hit. Of some 83,000 tested, about 20% had one in any assay. Activity calls are given as the source filed them. The calls were made as follows: active = growth percent below 10; inactive = the rest.
Possible outcomes: 1.0 (active), 0.0 (inactive)

INSERT INTO assay_data (molecule, group) VALUES
  ('CCC(CC)(c1ccccc1)C(OC(N)=O)c1ccccc1 (configuration not stated)', 0.0),
  ('O=C(O)c1[nH]c(=O)[nH]c(=O)c1F', 0.0),
  ('CC(C)(C)[Si](C)(C)OC1[C@@H](O[Si](C)(C)C(C)(C)C)[C@@H](CNC(=O)NC(=O)CF)O[C@H]1n1cnc2c(NC(=O)Nc3ccccc3)ncnc21 (some centres not stated)', 0.0),
  ('CCOc1cc(C=C(C#N)C#N)cc(Br)c1O', 0.0),
  ('Cc1cc(CCl)c(C)cc1CCl', 0.0),
  ('CC(C)Nc1ccc(Nc2ccccc2)cc1', 0.0),
  ('Nc1ncnc2c1c(C(=O)NO)cn2C1OC(CO)C(O)C1O (configuration not stated)', 1.0);

====

- System: HL-60(TB) leukemia
- methodSummary: NCI-60 one-dose screen, 48 h
- testContext: 10 µM unless noted
About 83,000 compounds went through this panel and 20% of them were active in at least one assay; those are over-represented in the sample as a whole. Active and inactive are the calls of the source. Rule for the calls: active = growth percent below 10; inactive = the rest.
Possible outcomes: Yes (active), No (inactive)

INSERT INTO measurements (molecule, group) VALUES
  ('CC1OC(n2c3ccccc3c3c4c(c5c6ccccc6[nH]c5c32)C(=O)N(CCN[C@H]2CCC[C@@H]2N)C4=O)CC(O)C1O (stereo partly drawn)', 'No'),
  ('COc1ccc(/C=C2\CCCC3=C2NC(C)=NC3c2ccc(OC)c(OC)c2)cc1OC (stereo not drawn)', 'Yes'),
  ('COc1cc(C2C(C(=O)OCc3ccccc3)=C(C)NC(C)=C2C(=O)OCc2ccccc2)cc(OC)c1OC', 'Yes'),
  ('C1=C\COCc2cc(ccc2OCCN2CCCC2)Nc2nccc(n2)-c2cccc(c2)COC/1', 'Yes'),
  ('COc1ccc2[nH]c(C(=O)OCc3ccc4c(Cl)cc(Cl)c(O)c4n3)cc2c1', 'Yes'),
  ('O=S(=O)(Nc1ccccc1Cl)c1ccc(-c2cnc(C3CC3)o2)cc1', 'Yes'),
  ('CC(C)/C=N/NC(N)=S', 'No'),
  ('COc1ccc2c(c1)N(CCO)C1=C(C(=O)OC1)C2c1ccc(OC)c(OC)c1 (stereo not drawn)', 'Yes'),
  ('C=CCOc1cccc(/C=C2\SC(=Nc3ccc(O)cc3)NC2=O)c1', 'Yes'),
  ('O=C(Nc1cccc2[nH]c(C(F)(F)F)nc12)c1ccc(F)cc1', 'No'),
  ('Nc1ncnc2c1N=C(c1ccc3c(c1)OCO3)CC(c1ccc([N+](=O)[O-])cc1)N2 (stereo not drawn)', 'No'),
  ('NC(=O)C1=C[C@H]2[C@H]3C=C[C@@]2(O)C(=O)O[C@@H]3O1', 'No'),
  ('Nc1c(C(=O)Nc2cccc3ncccc23)sc2nc3c(cc12)C(=O)CCC3', 'No');

====

- Tested on: HL-60(TB) leukemia
- methodSummary: NCI-60 one-dose screen, 48 h
- testContext: 10 µM unless noted
The panel holds about 83,000 compounds, 20% with a hit somewhere; the sample as a whole holds those more often. Active and inactive are the calls of the source. How the source made its calls: active means growth percent below 10; inactive means the rest.
Possible outcomes: active, inactive

INSERT INTO results (molecule, group) VALUES
  ('C#CCNC(=O)[C@H](Cc1ccccc1)NC(=O)[C@]12CC[C@@H](C(=C)C)[C@@H]1[C@H]1CC[C@@H]3[C@@]4(C)CCC(=O)C(C)(C)[C@@H]4CC[C@@]3(C)[C@]1(C)CC2', 'inactive'),
  ('C#Cc1cccc(NC(=O)C2CCCN(C(=O)CCl)C2)c1 (stereo unspecified)', 'inactive'),
  ('COc1cc2nc3sc(C(=O)Nc4ccc(C(=O)OC(C)C)cc4)c(C(=O)Nc4ccc(Cl)cc4C)n3c(=O)c2cc1OC', 'inactive'),
  ('Cc1nc(Nc2ccc(F)c(Cl)c2)sc1C(=O)O', 'inactive'),
  ('C=C1C(=O)O[C@@H]2C3C(=C(C)CC[C@@H]12)CC1O[C@]13C (stereo partly specified)', 'inactive'),
  ('O=C(/C=C/c1ccc(Cl)cc1)c1ccc(NC(=O)N2CCN(c3cc4c(cc3F)c(=O)c(C(=O)O)cn4C3CC3)CC2)cc1', 'inactive'),
  ('O=[N+]([O-])c1ccc([I+]c2ccccc2)cc1', 'inactive'),
  ('Clc1ccc(N2N=C(c3cccc(Nc4ccncc4)c3)CC2c2ccccc2)cc1 (stereo unspecified)', 'inactive'),
  ('CC1=NC(c2ccc(Cl)cc2)C2=C(N1)/C(=C/c1ccc(Cl)cc1)CCC2 (stereo unspecified)', 'inactive'),
  ('COc1ccc(CNC(=O)C(O)C(Cc2ccccc2)NC(=O)c2[nH]c3ccccc3c(=O)c2C)cc1OC (stereo unspecified)', 'inactive'),
  ('Cc1cc(C)c2c(=O)[nH]c(SCC(=O)Nc3cccc(S(=O)(=O)N(C)C)c3)nc2n1', 'inactive'),
  ('CCCC/C=C/[C@@H]1C[C@H]1CCO', 'inactive'),
  ('Cc1ccc(-c2nc3nc(-c4ccccc4)nc(N4CCCN(S(C)(=O)=O)CC4)c3o2)cc1', 'inactive'),
  ('COc1ccc(-c2nc(/C=C3/C(=O)Nc4ccc(F)cc43)c3ccccn23)cc1', 'inactive'),
  ('CC1(C)N=C(N)N=C(N)N1c1cccc(CN)c1', 'inactive'),
  ('O=C(/C=C\c1ccc2ccccc2n1)c1cc(Cl)ccc1O', 'inactive'),
  ('C=C1CC[C@H](C(C)C)[C@@H]2[C@H]1[C@H]1CC(=C)[C@@H](O)CC[C@@](C)(O)[C@@H]2O1', 'inactive'),
  ('CC[C@H](CC[C@@H](C)[C@H]1CC[C@H]2[C@@H]3CC[C@@H]4CC(=O)/C(=C\c5ccncc5)C[C@]4(C)[C@H]3CC[C@]12C)C(C)C', 'inactive'),
  ('C=C1C(=O)O[C@H]2[C@H]1CC/C(COC(=O)/C=C\C(=O)NCc1ccc(Cn3c(=O)sn(CCI)c3=O)cc1)=C\CC[C@@]1(C)O[C@@H]21', 'active'),
  ('O=C1NN(C(=O)c2ccc(Cl)cc2)C(c2ccccc2)=N/C1=C\c1cn(-c2ccccc2)nc1-c1ccccc1', 'inactive'),
  ('O=[N+]([O-])c1ccc(Sc2cccc[n+]2[O-])c2nonc12', 'active'),
  ('Nc1c(CNCc2nnn(Cc3ccccc3)c2N)nnn1Cc1ccccc1', 'inactive'),
  ('O=S(=O)(NCCNc1cc(-c2cn(-c3ccccc3)nc2-c2ccccc2)ccn1)c1cccc2ccccc12', 'inactive'),
  ('C=CC1=NC(C)(C)CC(C)O1 (stereo unspecified)', 'inactive'),
  ('CCCCCCOc1ccc(/C=N/NC(N)=S)cc1', 'active'),
  ('Fc1ccc2[nH]c3c(NCCCN4CCOCC4)ncnc3c2c1', 'inactive'),
  ('NC(=S)NN=C1CCCCC1', 'inactive'),
  ('COc1ccc(/C=c2\c(=O)n(-c3ccccc3)c3nn4c(n23)=NNC42CCCCC2)cc1', 'inactive'),
  ('COc1ccccc1C(=O)Nc1cccc(NC(=O)c2ccoc2C)c1', 'active'),
  ('O=C(/C=C\c1cc(Br)ccc1O)/C=C/c1cc(Br)ccc1O', 'active'),
  ('CCOC(=O)c1cnc2ccc(OC)cc2c1Nc1cccc(S(=O)(=O)NC)c1', 'inactive'),
  ('O=C(Nc1ccc(Cl)cc1)Nc1ccc(Oc2nncc3ccccc23)cc1', 'active'),
  ('C#Cc1cccc(NC(=O)Nc2ccccc2NC(=O)CCl)c1', 'inactive'),
  ('O=C1NC(=O)c2c1c1c3ccccc3[nH]c1c1oc3cc(Br)ccc3c21', 'inactive'),
  ('CN(C)c1ccc(/C=N\NC(=O)c2ccc3nc(-c4ccc(Cl)cc4)[nH]c3c2)cc1', 'inactive'),
  ('CCOC(=O)c1cc2c(n1Cc1cccc(OC)c1)-c1oncc1CCC2', 'active');

====

- Test system: HCC-2998 colon
- methodSummary: NCI-60 one-dose screen, 48 h (100 = growth as untreated, 0 = no growth, -100 = all killed)
- testContext: 10 µM unless noted
This is part of a sample that, as a whole, favours compounds with a hit. Of some 83,000 tested, about 20% had one in any assay.
Measured growth accompanies every entry in the list below.
measuredAttribute: growth (%)

INSERT INTO results (compound, observed) VALUES
  ('N#Cc1ncc(/N=C/c2ccc(N(CCCl)CCCl)cc2)s1', 96.8),
  ('OB([O][Hg][c]1ccccc1)[O][Hg][c]1ccccc1', -45.5),
  ('COC(C)(C)CCC[C@H](C)C/C=C/C(C)=C/C(=O)OC(C)C', 101),
  ('Cc1ccc2oc(=O)c3c(c2c1)OC(N)=C(C#N)C3c1ccco1 (configuration not stated)', 109),
  ('C1CNC2CCCC2C1 (configuration not stated)', 107),
  ('N#C[Se]CCN1C(=O)C2C(C1=O)[C@H]1C=C[C@@H]2S1 (some centres not stated)', 67.4),
  ('CCOC(=O)/C(C#N)=C/c1ccc(N(CCCl)CCCl)cc1', 105);
